From: patent US20240384268A1

Target: TLR8 (Homo sapiens)
Sequence (Q9NR97 27-1041): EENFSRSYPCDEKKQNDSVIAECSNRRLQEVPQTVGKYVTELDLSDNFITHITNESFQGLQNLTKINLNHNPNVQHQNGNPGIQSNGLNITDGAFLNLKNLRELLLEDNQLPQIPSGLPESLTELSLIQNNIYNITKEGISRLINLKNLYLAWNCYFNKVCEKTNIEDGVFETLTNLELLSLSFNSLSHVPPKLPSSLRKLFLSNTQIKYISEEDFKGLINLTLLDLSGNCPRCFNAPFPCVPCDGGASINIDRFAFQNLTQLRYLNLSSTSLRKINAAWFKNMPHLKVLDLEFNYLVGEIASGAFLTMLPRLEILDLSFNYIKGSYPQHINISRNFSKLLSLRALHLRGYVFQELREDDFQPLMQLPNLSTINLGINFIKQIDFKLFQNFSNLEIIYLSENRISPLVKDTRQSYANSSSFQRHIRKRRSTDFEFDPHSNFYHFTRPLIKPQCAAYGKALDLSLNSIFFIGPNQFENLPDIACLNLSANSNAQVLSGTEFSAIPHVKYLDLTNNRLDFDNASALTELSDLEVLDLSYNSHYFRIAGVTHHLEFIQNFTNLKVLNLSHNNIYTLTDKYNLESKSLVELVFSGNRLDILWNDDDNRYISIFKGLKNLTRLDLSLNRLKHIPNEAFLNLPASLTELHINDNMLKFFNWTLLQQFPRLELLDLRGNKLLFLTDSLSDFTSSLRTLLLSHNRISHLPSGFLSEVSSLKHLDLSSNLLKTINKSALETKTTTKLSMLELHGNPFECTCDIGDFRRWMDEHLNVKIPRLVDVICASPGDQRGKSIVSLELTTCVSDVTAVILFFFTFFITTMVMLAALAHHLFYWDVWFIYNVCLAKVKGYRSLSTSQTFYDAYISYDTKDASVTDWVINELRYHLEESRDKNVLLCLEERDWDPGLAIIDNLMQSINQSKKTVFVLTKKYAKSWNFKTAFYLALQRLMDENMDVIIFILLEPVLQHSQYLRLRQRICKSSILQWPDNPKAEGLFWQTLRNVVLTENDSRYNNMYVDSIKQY
Experiment: HEK-TLR8 NF-κB-luciferase reporter, R848 or Motolimod stimulation (potentiation or inhibition)
Assay type: cell-based
Set-up: expressed in transfected cells; host or cells: 293XLhTLR8 (HEK293)
Conditions: ASO 100 nM; relative to R848 only
metric: TLR8 100 nM (averaged NF-κB-Luciferase level relative to R848 condition, fold increase)

Worked examples follow.
GTGTCTGGAAGCTTCC (antisense; LNA-modified, pattern not given here) [CTNN2B-809 LNA V1]; 0.923
GTCCTTGCACGTGGCT (antisense; LNA-modified, pattern not given here) [EGFR-1015 LNA V1]; 0.570
TGATGGCCTCCCATCT (antisense; LNA-modified, pattern not given here) [HPRT LNA-332 V1]; 0.374
TCCAACACTTCGTGGG (antisense; LNA-modified, pattern not given here) [HPRT LNA-669 V1]; 0.413
GAGGTCTTGGCTTCGT (antisense; LNA-modified, pattern not given here) [MB21D1-525 LNA V1]; 0.574

Problem: // lookup TLR8 100 nM (averaged NF-κB-Luciferase level relative to R848 condition, fold increase) for TCTTCATCGGCCCTGC (antisense; LNA-modified, pattern not given here) [CAMSAP1-2112 LNA V1]
Result: 0.595

Problem: # query: TLR8 100 nM (averaged NF-κB-Luciferase level relative to R848 condition, fold increase) of entry TGTCCTTGCACGTGGC (antisense; LNA-modified, pattern not given here) [EGFR-1016 LNA V1]
Result: 0.636
